The origin of these recorded values is paper PMC12595617.

# System: Auyo microsomal P450
# protocol: in vitro
# Format: in vitro ADME, Anopheles coluzzii
# measurement_parameters: Anopheles coluzzii
# Protocol: For the determination of steady-state kinetic parameters, assays were conducted for 30 min with 0.05 µM microsomal P450 while varying the concentrations of fluorene (0–600 µM). Kinetics plot of velocity against the substrate concentrations was made using the least squares non-linear regression in GraphPad Prism 6.03 Software (GraphPad Inc., La Jolla, CA, USA) that fits into the canonical Michaelis-Menten model as previously described for pyrethroid insecticides.
value_kind: Km at 30 min (µM)

{"columns": ["compound", "value_kind", "unit_of_measure", "endpoint_result"],
 "data": [
  ["c1ccc2c(c1)Cc1ccccc1-2 [fluorene]", "Km at 30 min", "µM", 58.7]
]}
